Reference source for all entries: ChEMBL document CHEMBL1255403

Form field: MIC (one value per entry).
- Test system: Candida albicans
- assay.overview: Antibacterial activity against Fluconazole resistant Candida albicans DSY3706 containing tac1delta/delta ERG11-1/ERG11-1 genotype by EUCAST standards based broth microdilution method
- Type: functional
Write the quantity with the unit trailing the number.

Reference set, count: 2
CCC(C)n1ncn(-c2ccc(N3CCN(c4ccc(OCC5COC(Cn6cncn6)(c6ccc(Cl)cc6Cl)O5)cc4)CC3)cc2)c1=O (centres undefined) [ITRACONAZOLE]	0.0156 mg/L
C[C@@H](c1ncncc1F)[C@](O)(Cn1cncn1)c1ccc(F)cc1F [VORICONAZOLE]	0.0078 mg/L

Would you kindly share the measured MIC for CC[C@@H]([C@H](C)O)n1ncn(-c2ccc(N3CCN(c4ccc(OC[C@@H]5CO[C@@](Cn6cncn6)(c6ccc(F)cc6F)C5)cc4)CC3)cc2)c1=O [POSACONAZOLE] ?
0.031 mg/L

Here is the next compound: OC(Cn1cncn1)(Cn1cncn1)c1ccc(F)cc1F [FLUCONAZOLE]
0.25 mg/L
